# assayProtocol: Intravenous pharmacokinetics in Sprague-Dawley rats
# measurementContext: male, Sprague-Dawley, rat, plasma, iv, 1 mg/kg
propertyMeasured: Cmax (ng/mL)
Numbers only here, please. The scale is ng/mL.

Which value of Cmax has been reported for COc1ccc2c3c1O[C@H]1C(=O)CC[C@@]4(O)[C@@H](C2)N(C)CC[C@]314 [Oxycodone, reference compound] in the records? 495

----------
# assayProtocol: Intravenous pharmacokinetics in Sprague-Dawley rats
# measurementContext: male, Sprague-Dawley, rat, plasma, iv, 1 mg/kg
propertyMeasured: clearance
The answer should read as a number with its unit following.

Query (compound): COc1ccc2c3c1O[C@H]1C(=O)CC[C@@]4(O)[C@@H](C2)N(C)CC[C@]314 [Oxycodone, reference compound] ; field requested: clearance 77.1 mL/min/kg
